# test name: Specific activity of purified CHI, absorbance decrease at 384 nm, naringenin chalcone; note: unit not given here
# Format: biochemical
# condition description: purified CHI in 50 mM PBS, 100 μM substrate, 25° C.
readout kind: Specific activity, Naringenin chalcone
Answers are plain numbers.

Exam item: Data request, read-out Specific activity, Naringenin chalcone, for CHIera Mut14: Chalcone isomerase variant 14 from Eubacterium ramulus, genetically engineered (protein, listed as Eubacterium ramulus) MADFKFEPMRSLIYVDCVSEDYRPKLQRWIYKVHIPDSISKFEPYVTKYAFYPSFPIPPQGDRFGYARMQLTEHHWLVSELDPRLEINAIAETFPMDVLVWQGQIPAAAHTDAQIDSDGDAHRAARKSNNAEGNPFIFAFLPMWWEKDLKGKGRTIEDGANYRFNMTIGFPEGVDKAEGEKWLFEKVVPILQAAPECTRVLASAVKKDINGCVMDWVLEIWFENQSGWYKVMVDDMKALEKPSWAQQDAFPFLKPYHNVCSAAVADYTPSNNLANYRGYITMR
Marked response: 29.5
